Hey, just so you know, these numbers are from paper PMC4231793.

ASSAY NOTES: Noncompartmental pharmacokinetic analysis of whole-blood sirolimus
Format: in vivo, human
MEASUREMENT SETUP: human, whole blood, po, 2.5 mg/m^2/day, C24 (trough concentration at 24 hours after oral dosing), No Fluconazole (n = 11); mean ± SD (range)
RECORDED METRIC: concentration at 24 h (ng/mL)
Express your answer in ng/mL, writing the number without its unit.

concentration at 24 h for CO[C@H]1C[C@@H]2CC[C@@H](C)[C@@](O)(O2)C(=O)C(=O)N2CCCC[C@H]2C(=O)O[C@H]([C@H](C)C[C@@H]2CC[C@@H](O)[C@H](OC)C2)CC(=O)[C@H](C)/C=C(\C)[C@@H](O)[C@@H](OC)C(=O)[C@H](C)C[C@H](C)/C=C/C=C/C=C/1C [sirolimus, Sirolimus] ? 8

###

ASSAY NOTES: Noncompartmental pharmacokinetic analysis of whole-blood sirolimus
Assay type: in vivo, human
MEASUREMENT SETUP: human, whole blood, po, 2.5 mg/m^2/day, Co (trough concentration prior to oral dosing), All (n = 33); mean ± SD (range)
RECORDED METRIC: concentration at 0 h (ng/mL)
The answer is to be given in ng/mL; state only the numeric part.

For CO[C@H]1C[C@@H]2CC[C@@H](C)[C@@](O)(O2)C(=O)C(=O)N2CCCC[C@H]2C(=O)O[C@H]([C@H](C)C[C@@H]2CC[C@@H](O)[C@H](OC)C2)CC(=O)[C@H](C)/C=C(\C)[C@@H](O)[C@@H](OC)C(=O)[C@H](C)C[C@H](C)/C=C/C=C/C=C/1C [sirolimus, Sirolimus] , what is its reported concentration at 0 h? 8

###

ASSAY NOTES: Noncompartmental pharmacokinetic analysis of whole-blood sirolimus
Assay type: in vivo, human
MEASUREMENT SETUP: human, whole blood, po, 2.5 mg/m^2/day, Co (trough concentration prior to oral dosing), Oral Fluconazole (n = 6); mean ± SD (range)
RECORDED METRIC: concentration at 0 h (ng/mL)
Just the number please, in ng/mL, no unit attached.

concentration at 0 h for CO[C@H]1C[C@@H]2CC[C@@H](C)[C@@](O)(O2)C(=O)C(=O)N2CCCC[C@H]2C(=O)O[C@H]([C@H](C)C[C@@H]2CC[C@@H](O)[C@H](OC)C2)CC(=O)[C@H](C)/C=C(\C)[C@@H](O)[C@@H](OC)C(=O)[C@H](C)C[C@H](C)/C=C/C=C/C=C/1C [sirolimus, Sirolimus] ? 11

###

ASSAY NOTES: Noncompartmental pharmacokinetic analysis of whole-blood sirolimus
Format: in vivo, human
MEASUREMENT SETUP: human, whole blood, oral, 2.5 mg/m^2/day
RECORDED METRIC: Vd/F (L/kg)
Enter your answer as a number in L/kg; do not include the unit.

Can you share its Vd/F? I mean this compound: CO[C@H]1C[C@@H]2CC[C@@H](C)[C@@](O)(O2)C(=O)C(=O)N2CCCC[C@H]2C(=O)O[C@H]([C@H](C)C[C@@H]2CC[C@@H](O)[C@H](OC)C2)CC(=O)[C@H](C)/C=C(\C)[C@@H](O)[C@@H](OC)C(=O)[C@H](C)C[C@H](C)/C=C/C=C/C=C/1C [sirolimus, Sirolimus] 5.78

###

ASSAY NOTES: Noncompartmental pharmacokinetic analysis of whole-blood sirolimus
Assay type: in vivo, human
MEASUREMENT SETUP: human, whole blood, oral, 2.5 mg/m^2/day, Co (trough concentration prior to oral dosing), i.v. Fluconazole (n = 16); mean ± SD (range)
RECORDED METRIC: concentration at 0 h

Quick one: concentration at 0 h of CO[C@H]1C[C@@H]2CC[C@@H](C)[C@@](O)(O2)C(=O)C(=O)N2CCCC[C@H]2C(=O)O[C@H]([C@H](C)C[C@@H]2CC[C@@H](O)[C@H](OC)C2)CC(=O)[C@H](C)/C=C(\C)[C@@H](O)[C@@H](OC)C(=O)[C@H](C)C[C@H](C)/C=C/C=C/C=C/1C ? 8 ng/mL

###

ASSAY NOTES: Noncompartmental pharmacokinetic analysis of whole-blood sirolimus
Assay type: in vivo, human
MEASUREMENT SETUP: human, whole blood, oral, 2.5 mg/m^2/day, C24 (trough concentration at 24 hours after oral dosing), i.v. Fluconazole (n = 16); mean ± SD (range)
RECORDED METRIC: concentration at 24 h

What measured concentration at 24 h goes with CO[C@H]1C[C@@H]2CC[C@@H](C)[C@@](O)(O2)C(=O)C(=O)N2CCCC[C@H]2C(=O)O[C@H]([C@H](C)C[C@@H]2CC[C@@H](O)[C@H](OC)C2)CC(=O)[C@H](C)/C=C(\C)[C@@H](O)[C@@H](OC)C(=O)[C@H](C)C[C@H](C)/C=C/C=C/C=C/1C [sirolimus, Sirolimus] ? 10 ng/mL

###

ASSAY NOTES: Population pharmacokinetic analysis
Assay type: in vivo, human
MEASUREMENT SETUP: human, whole blood, oral, 2.5 mg/m^2/day
RECORDED METRIC: Vd (L)
Report the value in L with no unit label.

If you can, please state the reported Vd value of CO[C@H]1C[C@@H]2CC[C@@H](C)[C@@](O)(O2)C(=O)C(=O)N2CCCC[C@H]2C(=O)O[C@H]([C@H](C)C[C@@H]2CC[C@@H](O)[C@H](OC)C2)CC(=O)[C@H](C)/C=C(\C)[C@@H](O)[C@@H](OC)C(=O)[C@H](C)C[C@H](C)/C=C/C=C/C=C/1C [sirolimus, Sirolimus] . 26.9

###

ASSAY NOTES: Noncompartmental pharmacokinetic analysis of whole-blood sirolimus
Format: in vivo, human
MEASUREMENT SETUP: human, whole blood, po, 2.5 mg/m^2/day, C24 (trough concentration at 24 hours after oral dosing), All (n = 33); mean ± SD (range)
RECORDED METRIC: concentration at 24 h (ng/mL)
The response must be a number in ng/mL with no trailing unit.

Reported concentration at 24 h, compound CO[C@H]1C[C@@H]2CC[C@@H](C)[C@@](O)(O2)C(=O)C(=O)N2CCCC[C@H]2C(=O)O[C@H]([C@H](C)C[C@@H]2CC[C@@H](O)[C@H](OC)C2)CC(=O)[C@H](C)/C=C(\C)[C@@H](O)[C@@H](OC)C(=O)[C@H](C)C[C@H](C)/C=C/C=C/C=C/1C : ____ 9.1

###

ASSAY NOTES: Noncompartmental pharmacokinetic analysis of whole-blood sirolimus
Assay type: in vivo, human
MEASUREMENT SETUP: human, whole blood, oral, 2.5 mg/m^2/day
RECORDED METRIC: Tmax (h)
A number alone suffices; assume h.

Using the record for CO[C@H]1C[C@@H]2CC[C@@H](C)[C@@](O)(O2)C(=O)C(=O)N2CCCC[C@H]2C(=O)O[C@H]([C@H](C)C[C@@H]2CC[C@@H](O)[C@H](OC)C2)CC(=O)[C@H](C)/C=C(\C)[C@@H](O)[C@@H](OC)C(=O)[C@H](C)C[C@H](C)/C=C/C=C/C=C/1C , report its Tmax. 3.3
